# T/C values compiled below
Test system: CD2F1 mice, L1210 leukemia ip, survival T/C
ASSAY_METHOD_TEXT: NCI In Vivo Anticancer Drug Screen. Data for tumor model L1210 Leukemia (intraperitoneal) in CD2F1 (CDF1) mice
PROTOCOL_CONDITIONS: endpoint: mean survival time; dose: 100.0 mg/kg/injection; schedule: Q01DX005 (ip); vehicle: distilled water + Tween-80; higher = longer survival
Inconclusive results and toxic doses are left out.
ASSAY_READOUT: T/C

* CC(O)C1OC(n2cnc3c(=O)[nH]cnc32)C(O)C1O (stereo not drawn) | 102 % of control
* Nc1nc(Nc2ccccc2)c2ncn(C3OC(CO)C(O)C3O)c2n1 (stereo not drawn) | 98 % of control
* Cc1ccc(Sc2ncnc3c2ncn3C2OC(CO)C(O)C2O)cc1 (stereo not drawn) | 90 % of control
* O=[N+]([O-])c1ccc(Cc2ncnc3c2ncn3C2OC(CO)C(O)C2O)cc1 (stereo not drawn) | 120 % of control
* O=c1[nH]c(=O)n(C2CC(O)C(CO)O2)cc1/C=N/O (stereo not drawn) | 98 % of control
* CCCCCCCCC(Sc1nn(C2OC(COC(=O)c3ccccc3)C(OC(=O)c3ccccc3)C2OC(=O)c2ccccc2)c(=O)[nH]c1=O)C(=O)OCC (stereo not drawn) | 97 % of control
* Nc1ncnc2c1[nH]c(=O)n2C1OC(CO)C2OC21 (stereo not drawn) | 92 % of control
* Cc1cn(C2CC(O)C(COC(c3ccccc3)(c3ccccc3)c3ccc(OCC(=O)O)cc3)O2)c(=O)[nH]c1=O (stereo not drawn) | 102 % of control

====

Test system: CD2F1 mice, L1210 leukemia ip, survival T/C
ASSAY_METHOD_TEXT: NCI In Vivo Anticancer Drug Screen. Data for tumor model L1210 Leukemia (intraperitoneal) in CD2F1 (CDF1) mice
PROTOCOL_CONDITIONS: endpoint: mean survival time; dose: 75.0 mg/kg/injection; schedule: Q04DX003 (ip); vehicle: saline; higher = longer survival
Inconclusive results and toxic doses are left out.
Measured T/C, listed per entry for reference.
ASSAY_READOUT: T/C

• O=C1C(=O)c2cccnc2C(NCc2ccccc2)=C1Cl = 98 % of control
• CC1(C)N=C(N)N=C(N)N1c1ccc(CCCCc2ccc(S(=O)(=O)F)cc2Cl)c(Cl)c1 = 104 % of control
• C[n+]1ccc(/C(=N\O)c2ccccc2)cc1 = 100 % of control
• CC(C)=NC(=O)NO.[Cl][Co][Cl] = 113 % of control
• O=S(=O)(F)c1ccc(C[P+](c2ccccc2)(c2ccccc2)c2ccccc2)c(Cl)c1 = 112 % of control
• Cc1ccc(Cl)c2nc(-c3ccccc3)ccc12 = 112 % of control

====

Tested on: CD2F1 mice, L1210 leukemia ip, survival T/C
ASSAY_METHOD_TEXT: NCI In Vivo Anticancer Drug Screen. Data for tumor model L1210 Leukemia (intraperitoneal) in CD2F1 (CDF1) mice
PROTOCOL_CONDITIONS: endpoint: mean survival time; dose: 400.0 mg/kg/injection; schedule: Q04DX003 (ip); vehicle: acetone; higher = longer survival
Toxic doses and inconclusive results are not listed.
Listed next: entries and their corresponding T/C.
ASSAY_READOUT: T/C

• c1ccc(C2=NN(c3ccccc3)C(c3ccccc3)C2NC2CCCCC2)cc1 (stereo unspecified) = 97 % of control
• CC1CCC(c2cc(-c3ccccc3)n(-c3ccccc3)n2)CC1 (stereo unspecified) = 93 % of control
• O=[N+]([O-])/C=C/c1cc2ccccc2[nH]1 = 105 % of control
• CCOC(=O)C1(C2=NC(C)(C)CC(C)O2)CCCCC1 (stereo unspecified) = 105 % of control
• NCc1ccccc1 = 97 % of control
• CCOC(=O)C12CCCCCC1CC(=O)CC2 (stereo unspecified) = 86 % of control
